HRG-induced Akt activation (log2) values for the sequences below.
System: MCF7
Measurement description: HRG-induced Akt activation (dPAkt = log2 pAkt/Akt HRG-stimulated minus log2 pAkt/Akt basal) (log2 ratio difference); higher = stronger HRG-induced Akt(T308) phosphorylation
Condition label: miRNA mimic concentration 10 nM; time after transfection 72 h; heregulin 10 ng/ml; stimulation time 1 h
Lab note: record the figure alone, no unit after it.

Example cases with answers are listed next.
Residues: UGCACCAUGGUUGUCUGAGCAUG
Target entity: MCF7
HRG-induced Akt activation (log2): 1.29
//
Residues: AAAAGCUGGGUUGAGAGGA
Target entity: MCF7
HRG-induced Akt activation (log2): 1.51
//
Residues: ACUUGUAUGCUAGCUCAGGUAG
Target entity: MCF7
HRG-induced Akt activation (log2): 1.13
//
Residues: CUCCUGAGCCAUUCUGAGCCUC
Target entity: MCF7
HRG-induced Akt activation (log2): 1.48
//
Residues: UUUCCGGCUCGCGUGGGUGUGU
Target entity: MCF7
HRG-induced Akt activation (log2): 1.63

## Task Give the measured HRG-induced Akt activation (log2) of `AAGCAGCUGCCUCUGAGGC` .
## Result 2.16

## Task Sample `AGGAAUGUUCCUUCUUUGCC` — what was its HRG-induced Akt activation (log2)?
## Result 1.91

## Task So what's the measured HRG-induced Akt activation (log2) for this one? `GAACGCGCUUCCCUAUAGAGGGU`
## Result 1.42

---

Some sequences, each annotated with its measured HRG-induced Akt activation (log2).
System: MCF7
Measurement description: HRG-induced Akt activation (dPAkt = log2 pAkt/Akt HRG-stimulated minus log2 pAkt/Akt basal) (log2 ratio difference); higher = stronger HRG-induced Akt(T308) phosphorylation
Condition label: miRNA mimic concentration 10 nM; time after transfection 72 h; heregulin 10 ng/ml; stimulation time 1 h
Enter a number only.

## Task // returns reported HRG-induced Akt activation (log2) for input `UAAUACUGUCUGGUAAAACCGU`
## Result 1.15

## Task Give the measured HRG-induced Akt activation (log2) of `AUGUAUGUGUGCAUGUGCAUG` .
## Result 1.62

## Task Given `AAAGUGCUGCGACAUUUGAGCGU` , state its recorded HRG-induced Akt activation (log2).
## Result 0.644

## Task Entry under review: `UCUGCAGGGUUUGCUUUGAG` . Reported HRG-induced Akt activation (log2)?
## Result 1.07

---

System: MCF7
Measurement description: HRG-induced Akt activation (dPAkt = log2 pAkt/Akt HRG-stimulated minus log2 pAkt/Akt basal) (log2 ratio difference); higher = stronger HRG-induced Akt(T308) phosphorylation
Condition label: miRNA mimic concentration 10 nM; time after transfection 72 h; heregulin 10 ng/ml; stimulation time 1 h
# maps each entry to its HRG-induced Akt activation (log2)
Answer field: number only, no words.

Residues: UAUACCUCAGUUUUAUCAGGUG
Recorded metric: HRG-induced Akt activation (log2)
Val: 1.94

Residues: AAAAGCUGGGUUGAGAGGGCGA
Recorded metric: HRG-induced Akt activation (log2)
Val: 1.44

Residues: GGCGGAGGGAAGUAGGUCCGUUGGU
Recorded metric: HRG-induced Akt activation (log2)
Val: 1.52

Residues: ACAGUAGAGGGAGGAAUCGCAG
Recorded metric: HRG-induced Akt activation (log2)
Val: 1.42

Residues: AACUGUUUGCAGAGGAAACUGA
Recorded metric: HRG-induced Akt activation (log2)
Val: 1.82

--- query ---
## Task For `CUAGUGAGGGACAGAACCAGGAUUC` , what is its reported HRG-induced Akt activation (log2)?
## Result 1.82

---

As shown below, each of these sequences has a reported HRG-induced Akt activation (log2) value.
Tested on: MCF7
Measurement description: HRG-induced Akt activation (dPAkt = log2 pAkt/Akt HRG-stimulated minus log2 pAkt/Akt basal) (log2 ratio difference); higher = stronger HRG-induced Akt(T308) phosphorylation
Condition label: miRNA mimic concentration 10 nM; time after transfection 72 h; heregulin 10 ng/ml; stimulation time 1 h
Write the number on its own, no unit after it.

Some solved cases for reference:
Residues: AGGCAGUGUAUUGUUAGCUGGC
Target entity: MCF7
Val: 1.91
--
Residues: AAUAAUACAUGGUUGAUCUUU
Target entity: MCF7
Val: 1.38
--
Residues: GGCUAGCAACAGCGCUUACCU
Target entity: MCF7
Val: 0.933
--
Residues: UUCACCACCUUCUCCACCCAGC
Target entity: MCF7
Val: 1.57
--
Residues: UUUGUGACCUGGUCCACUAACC
Target entity: MCF7
Val: 1.16

## Task // fetch MCF7 HRG-induced Akt activation (log2) for `CUGGUACAGGCCUGGGGGACAG`
## Result 1.68

## Task Tell me reported HRG-induced Akt activation (log2) for `GAUGAGCUCAUUGUAAUAUGAG` , tested with MCF7.
## Result 1.71

## Task Recorded HRG-induced Akt activation (log2) for `AAACAUUCGCGGUGCACUUCUU` with MCF7, please?
## Result 1.84

---

Recorded measurements of HRG-induced Akt activation (log2), one per entry
Test system: MCF7
Measurement description: HRG-induced Akt activation (dPAkt = log2 pAkt/Akt HRG-stimulated minus log2 pAkt/Akt basal) (log2 ratio difference); higher = stronger HRG-induced Akt(T308) phosphorylation
Condition label: miRNA mimic concentration 10 nM; time after transfection 72 h; heregulin 10 ng/ml; stimulation time 1 h
Write no unit; give the number alone.

Residues: AGAGUCUUGUGAUGUCUUGC
HRG-induced Akt activation (log2): 2.38

## Task What does the data say about its HRG-induced Akt activation (log2)? Entry: `ACAGAUUCGAUUCUAGGGGAAU`
## Result 1.75

## Task Can you look up the measured HRG-induced Akt activation (log2) of `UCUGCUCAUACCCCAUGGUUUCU` for me?
## Result 1.15

## Task Given the sequence `CGGGUCGGAGUUAGCUCAAGCGG` , what is its reported HRG-induced Akt activation (log2)?
## Result 1.44

---

As shown below, each of these sequences has a reported HRG-induced Akt activation (log2) value.
System: MCF7
Measurement description: HRG-induced Akt activation (dPAkt = log2 pAkt/Akt HRG-stimulated minus log2 pAkt/Akt basal) (log2 ratio difference); higher = stronger HRG-induced Akt(T308) phosphorylation
Condition label: miRNA mimic concentration 10 nM; time after transfection 72 h; heregulin 10 ng/ml; stimulation time 1 h
Give the figure only, with no unit attached.

## Task State its HRG-induced Akt activation (log2) on MCF7: `UUCAAGUAAUUCAGGAUAGGU`
## Result 1.06

## Task Request: HRG-induced Akt activation (log2), test system MCF7, entry `UAAAUUUCACCUUUCUGAGAAGG`
## Result 1.46

## Task # query: HRG-induced Akt activation (log2) | item `CCAUGGAUCUCCAGGUGGGU` | system: MCF7
## Result 1.47

## Task So what HRG-induced Akt activation (log2) did `AGCUGGUGUUGUGAAUCAGGCCG` get with MCF7?
## Result 1.87

## Task API: value(readout= HRG-induced Akt activation (log2), system= MCF7, query= `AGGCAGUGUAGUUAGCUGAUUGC` )
## Result 2.22

---

Quick list: HRG-induced Akt activation (log2) per entry.
System: MCF7
Measurement description: HRG-induced Akt activation (dPAkt = log2 pAkt/Akt HRG-stimulated minus log2 pAkt/Akt basal) (log2 ratio difference); higher = stronger HRG-induced Akt(T308) phosphorylation
Condition label: miRNA mimic concentration 10 nM; time after transfection 72 h; heregulin 10 ng/ml; stimulation time 1 h
A bare number is all that is needed in reply.

Past entries and their recorded results:
Residues: GAUUUCAGUGGAGUGAAGUUC
Target entity: MCF7
HRG-induced Akt activation (log2): 1.74

Residues: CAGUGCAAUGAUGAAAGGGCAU
Target entity: MCF7
HRG-induced Akt activation (log2): 1.31

## Task HRG-induced Akt activation (log2) lookup needed for `UAUGUAACAUGGUCCACUAACU` , thanks.
## Result 1.97

## Task Consider the sequence `UCGUUUGCCUUUUUCUGCUU` and give its measured HRG-induced Akt activation (log2).
## Result 1.46

## Task What value of measured HRG-induced Akt activation (log2) is listed for `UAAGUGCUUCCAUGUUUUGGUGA` ?
## Result 0.743

## Task Can you share its HRG-induced Akt activation (log2)? I mean this sequence: `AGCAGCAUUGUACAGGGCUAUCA`
## Result 1.35

---

Test system: MCF7
Measurement description: HRG-induced Akt activation (dPAkt = log2 pAkt/Akt HRG-stimulated minus log2 pAkt/Akt basal) (log2 ratio difference); higher = stronger HRG-induced Akt(T308) phosphorylation
Condition label: miRNA mimic concentration 10 nM; time after transfection 72 h; heregulin 10 ng/ml; stimulation time 1 h
Recorded metric: HRG-induced Akt activation (log2)
API doc: respond with a numeric literal and nothing else, no unit.

Solved cases below.
Residues: CUGAAGCUCAGAGGGCUCUGAU
Val: 1.38

Residues: ACCUUCUUGUAUAAGCACUGUGCUAAA
Val: 1.54

Residues: AAAAGCUGGGUUGAGAGGGU
Val: 1.89

## Task Tell me the measured HRG-induced Akt activation (log2) of `AGUUAGGAUUAGGUCGUGGAA` , please.
## Result 1

## Task Given the sequence `UUGGGAUCAUUUUGCAUCCAUA` , what is its reported HRG-induced Akt activation (log2)?
## Result 1.13

Cited source: the supplement of paper PMC4314810
